biological target: SBC2 (Homo sapiens, UniProt O14508); construct: SOCS2 (amino acids 32–198); His6 (N, cleaved yes); made in house; host or cells: E. coli BL21(DE3); experiment: Covalent fluorescence polarization (FP) probe displacement assay; format: binding; conditions: SBC2 titration with 10 nM probe; read-out: KD of fluorescent probe measured with FP
Endpoint name: pKd
Scale: negative log10 of molar concentration, which is what pKd denotes.

(Q) Sample Cc1cc(CNC(=O)[C@H](Cc2ccc(OP(=O)(O)O)cc2)NC(=O)Cc2ccc(F)cc2OCCNC(=S)Nc2ccc3c(c2)C(=O)OC32c3ccc(O)cc3Oc3cc(O)ccc32)ccc1Cl [Compound 26] — what was its pKd?
(A) 7.11

====

Biological target: SBC2 (Homo sapiens, UniProt O14508)
Construct: SOCS2 (amino acids 32–198); His6 (N, cleaved yes); made in house; host or cells: E. coli BL21(DE3)
Experiment: Surface plasmon resonance (SPR) with SBC2 immobilized on the chip
Type: binding
Conditions: Table 1, n = 1
Description: First, we decided to optimize the N-terminal region of 1 while maintaining the N-methylamide group at the C-terminus. To generate analogs rapidly, we employed a solid phase synthesis using methyl indole AM resin. After Fmoc deprotection, the resin was loaded with Fmoc-Tyr (PO(OBzl)2)-OH[29]. […] We found an excellent correlation between the KD values measured via the two techniques (Table 1). […]
Kindly state Kd for each of the entries shown.
Expressed in µM, but write only the number.

(Q) Sample `CNC(=O)[C@H](Cc1ccc(OP(=O)(O)O)cc1)NC(=O)Cc1ccc(F)cc1` — what was its Kd?
(A) 49

(Q) Sample `CNC(=O)[C@H](Cc1ccc(OP(=O)(O)O)cc1)NC(C)=O` — what was its Kd?
(A) 269

====

target: HiBiT-SOCS2 fusion in HeLa cells (Homo sapiens, UniProt O14508); construct: encoding SOCS2 (32–198) in pBiT3.1-N expression vector; expressed in transfected cells; host or cells: HeLa; assay: Split-NanoLuc CETSA, permeabilised cell format; assay type: cell-based; conditions: MN551 CETSA dose response, Mean; read-out: EC50
Sequence (O14508 32-198): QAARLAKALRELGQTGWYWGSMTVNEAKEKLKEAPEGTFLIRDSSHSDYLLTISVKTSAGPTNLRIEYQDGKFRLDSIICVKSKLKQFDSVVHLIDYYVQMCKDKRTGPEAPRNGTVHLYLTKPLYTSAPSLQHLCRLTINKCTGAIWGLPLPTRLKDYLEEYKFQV
Sequence (Q15370 whole entry, further chain, the tested form may be a part): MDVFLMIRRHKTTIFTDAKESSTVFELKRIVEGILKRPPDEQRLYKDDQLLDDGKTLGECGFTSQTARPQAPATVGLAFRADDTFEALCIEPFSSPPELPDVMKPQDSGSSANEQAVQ
Sequence (Q15369 whole entry, further chain, the tested form may be a part): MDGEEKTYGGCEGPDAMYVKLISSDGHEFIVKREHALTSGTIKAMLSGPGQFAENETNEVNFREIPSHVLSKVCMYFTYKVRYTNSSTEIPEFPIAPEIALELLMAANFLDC
Endpoint name: EC50
Respond with a number, then the unit of measure.

(Q) Sample `O=C(CCl)Nc1cccc(CNC(=O)[C@H](Cc2ccc(OP(=O)(O)O)cc2)NC(=O)Cc2ccc(F)cc2)c1` — what was its EC50?
(A) 1010 nM

====

Molecular target: SBC2 (Homo sapiens, UniProt O14508)
Construct: SOCS2 (amino acids 32–198); His6 (N, cleaved yes); made in house; host or cells: E. coli BL21(DE3)
Assay: Covalent fluorescence polarization (FP) probe displacement assay
Format: binding
Details: calculated from IC50 at time = 0; read-out: Ki at time = 0 (initial reversible binding affinity)
Experimental: With the specific covalent modification of Cys111 established, we decided to fully characterize MN551 as a covalent SOCS2 inhibitor. […] (Fig. 2g, h, Supplementary Fig. 9). Due to the covalent nature of the competing inhibitor, a time-dependent reduction in the fraction of protein-bound probe is observed. […] A time-dependent reduction in probe anisotropy were measured for a 2-fold serial dilution of […] compound MN551 in 10 nM probe +300 μM SBC2. […]
Endpoint name: Ki (nM)
Expressed in nM, but write only the number.

(Q) Requested read-out Ki, target or system SBC2 (Homo sapiens, UniProt O14508), entry O=C(CCl)Nc1cccc(CNC(=O)[C@H](Cc2ccc(OP(=O)(O)O)cc2)NC(=O)Cc2ccc(F)cc2)c1 [MN551]
(A) 1100

Values from paper PMC10564737
